The following molecules are shown together with reported IC50 values.
Assay: Inhibition of Escherichia coli BL21(DE3) LpxC C63A mutant using UDP-3-O-(R-3-hydroxymyristoyl)-N-acetylglucosamine as substrate incubated for 30 mins by o-phthaldialdehyde-2-mercaptoethanol based fluorescence assay

- chem smiles: "O=C(NO)[C@H](CO)O[C@@H](CO)c1ccc(C#Cc2ccccc2)cc1"
  lt gt eq: "="
  IC50 [µM]: 150
- chem smiles: "O=C(NO)[C@@H]1O[C@@H](c2ccc(C#Cc3ccc(CN4CCOCC4)cc3)cc2)[C@@H](O)[C@H]1O"
  lt gt eq: "="
  IC50 [µM]: 10
- chem smiles: "O=C(NO)[C@@H](CO)O[C@H](CO)c1ccc(C#Cc2ccc(CN3CCOCC3)cc2)cc1"
  lt gt eq: "="
  IC50 [µM]: 8
- chem smiles: "O=C(NO)[C@H]1O[C@@H](c2ccc(C#Cc3ccc(CN4CCOCC4)cc3)cc2)[C@@H](O)[C@H]1O"
  lt gt eq: ">"
  IC50 [µM]: 200
- chem smiles: "O=C(NO)[C@H](CO)O[C@H](CO)c1ccc(C#Cc2ccc(CN3CCOCC3)cc2)cc1"
  lt gt eq: "="
  IC50 [µM]: 2.6
- chem smiles: "O=C(NO)[C@@H](CO)O[C@@H](CO)c1ccc(C#Cc2ccccc2)cc1"
  lt gt eq: ">"
  IC50 [µM]: 200
- chem smiles: "O=C(NO)[C@H]1O[C@@H](c2ccc(C#CC#Cc3ccccc3)cc2)[C@@H](O)[C@H]1O"
  lt gt eq: "="
  IC50 [µM]: 32
- chem smiles: "O=C(NO)[C@@H]1O[C@H](c2ccc(C#Cc3ccc(CN4CCOCC4)cc3)cc2)[C@@H](O)[C@H]1O"
  lt gt eq: "="
  IC50 [µM]: 42
- chem smiles: "O=C(NO)[C@@H]1C[C@H](O)[C@H](c2ccc(C#Cc3ccc(CN4CCOCC4)cc3)cc2)O1"
  lt gt eq: "="
  IC50 [µM]: 87

Value source: ChEMBL document CHEMBL3769393
